- Test system: HCV replicon RNA replication
- test-method-notes: HCV replicon assay, Renilla luciferase reporter
- Type: cell-based
- details: Hepatitis C virus, Huh-7, 72 h; Renilla luciferase HCV replicon cells (2209-23, Huh7), three days incubation; concentration reducing luciferase activity/replicon level by 50%
Kindly supply the reported log10 of IC50 values for the records listed here.
Log10 applied to IC50; unit prior to transform: µM.

Past entries and their recorded results:
[[record]]
chemical_structure = "CCCNc1ncnc2c1ncn2[C@@H]1O[C@H](CO)[C@@H](O)[C@H]1O"
measured_number = 0.85

[[record]]
chemical_structure = "Nc1ccn([C@@H]2O[C@H](CO)[C@H](F)[C@H]2O)c(=O)n1"
measured_number = 1.02

[[record]]
chemical_structure = "CCNc1ncnc2c1ncn2[C@@H]1O[C@H](CO)[C@@H](O)[C@H]1O"
measured_number = 1.15

[[record]]
chemical_structure = "Nc1ccn([C@@H]2O[C@H](CO)[C@H](O)[C@H]2O)c(=O)n1"
measured_number = 0.57


# next compound below
# get_value(readout='log10 of IC50', item= Nc1ccn([C@@H]2C[C@H](CO)[C@@H](O)[C@H]2O)c(=O)n1 )
-0.40
